Recorded result_ITMP values for a group of compounds are listed next.
# System: Vero-E6
# Procedure summary: primary screen, phospholipidosis by LipidTOX staining; higher = more effect of the substance
# Study conditions: 10 µM
The whole screen tested about 5,400 compounds, of which about 190 (3.5%) showed an effect of 50% or more. Only a selection was taken, and strong results are over-represented in it overall.
Please answer in the form of a number followed by its unit of measurement.

Please review the entries below; each comes with its answer.
CC[C@@]1(C2O[C@@H](C3O[C@@](O)(CO)[C@H](C)C[C@@H]3C)C[C@@H]2C)CC[C@H]([C@]2(C)CCC3(C[C@H](O)[C@@H](C)[C@@H]([C@H](C)[C@@H](OC)[C@H](C)C(=O)[O-])O3)O2)O1 (stereo partly drawn): -2.43%
c1ccc2nc(N3CCNCC3)ccc2c1: 9.23%

Kindly note the recorded result_ITMP for CCN(CC)CCOC(=O)C(c1ccccc1)c1ccccc1 , which is 3.73%

result_ITMP for CCN(CC)CCOC(=O)C1(c2ccccc2)CCCC1 is 2.32%

Form field result_ITMP, entry COC(=O)C(c1ccccc1)C1CCCCN1 (stereo not drawn) : 10.3%

Value of measured result_ITMP for the entry OC(c1cc(C(F)(F)F)nc2c(C(F)(F)F)cccc12)C1CCCCN1 (stereo not drawn) : 50%
